Test system: HL-60
procedure text: Cytotoxicity against human HL60 cells
Assay type: functional, cell-based
assay metric: IC50 (nM)
Kindly provide the numeric value in nM only, without the unit symbol.

Task: I have this compound here, C=C1C(=O)O[C@@H]2/C=C(/C)[C@@H](OC(C)=O)C[C@H]3O[C@]3(C)C[C@@H](OC(=O)/C(=C/C)CO)[C@@H]12 [EUPALININ A] , and I need its recorded IC50.
Output: 2400
